- assay_text: in vivo
- condition_info: female, mouse, 50 mg/kg/day, Calculated free compound level in brain, mice, 3 days of dosing via drinking water at 50 mg/kg/day
measured_parameter: concentration at 3 days

// concentration at 3 days lookup, key: Nc1scc2c(C(=O)NC3CC3)nn(-c3ccc(F)cc3)c(=O)c12 [Compound 43]
6 nM

* * *

Would you kindly list solubility for each of these molecules?
- assay_text: Aqueous solubility in the sodium acetate buffer of the fibrillization assay
- Type: physicochemical

For the molecule "Cc1nn(-c2cccnc2)c(=O)c2c(N)scc12" , what solubility is on record?
> 200 µM

Please report the recorded solubility for "Nc1scc2c(-c3ccccc3)nn(CC(F)(F)F)c(=O)c12" .
> 200 µM

What value of solubility has been reported for the following molecule? "CCOC(=O)c1nn(-c2ccc(C(C)C)cc2)c(=O)c2c(N)scc12"
32 µM

Entry CCOC(=O)c1nn(-c2ccc(Cl)cc2)c(=O)c2c1C(O)NC2=O (centres unmarked) has what solubility?
> 200 µM

Can you look up the measured solubility of "Cc1nn(CC(F)(F)F)c(=O)c2c(N)scc12" for me?
> 200 µM

* * *

- assay_text: Aqueous solubility in the sodium acetate buffer of the fibrillization assay
- Assay type: physicochemical
measured_parameter: solubility

Tell me the measured solubility of "Nc1scc2c(C(=O)O)nn(-c3ccc(C(F)(F)F)cc3)c(=O)c12" , please.
> 200 µM

Given "Cc1n[nH]c(=O)c2c(N)scc12" , state its recorded solubility.
> 200 µM

Requested field: solubility. Item: "Cc1nn(C2CCCCC2)c(=O)c2c(N)scc12"
> 200 µM

Which solubility reading was recorded for the compound "Nc1scc2c(C(=O)O)nn(-c3ccc(F)cc3)c(=O)c12" ?
> 200 µM

Would you mind telling me what solubility value was observed for "CCOC(=O)c1nn(-c2ccc(C(F)(F)F)cc2)c(=O)c2c(N)scc12" ?
32 µM

* * *

- assay_text: Unbound fraction in plasma by rapid equilibrium dialysis
- Format: in vitro ADME
- condition_info: mouse, pH 7.4
measured_parameter: fraction unbound at 5 h, 1 μM
Could you respond with only the numeric value?

Given the molecule "Cc1nn(Cc2ccccc2)c(=O)c2c(N)scc12" , what is its reported fraction unbound at 5 h, 1 μM?
0.04

# get_value(readout='fraction unbound at 5 h, 1 μM', item= "CC(C)NC(=O)c1nn(-c2ccc(F)cc2)c(=O)c2c(N)scc12" )
0.057

Which fraction unbound at 5 h, 1 μM value belongs to "Nc1scc2c(C(=O)NCC(F)(F)F)nn(-c3ccc(F)cc3)c(=O)c12" ?
0.022

* * *

Please go through the items and note down their solubility.
- assay_text: Aqueous solubility in the sodium acetate buffer of the fibrillization assay
- Assay type: physicochemical
Enter your answer as a number in µM; do not include the unit.

Look up solubility for this compound: "Cc1nn(C(C)C)c(=O)c2c(N)scc12"
80

For the compound "CCOC(=O)c1nn(-c2ccc(Cl)cc2)c(=O)c2c(NC)scc12" , what solubility is on record?
80

For the compound "Nc1scc2c(C(=O)NC3CC3)nn(-c3ccccc3Cl)c(=O)c12" , what solubility is on record?
80

Name the reported solubility value associated with the compound "Cc1nn(Cc2ccccc2)c(=O)c2c(N)scc12"
80

Which solubility value is on record for "CCOC(=O)c1nn(-c2ccc(Cl)cc2)c(=O)c2c(N)sc(Cl)c12" ?
32

Look at this compound and give its reported solubility. "CCOC(=O)c1nn(-c2ccc(Cl)cc2)c(=O)c2c(N)sc(Br)c12"
12.8
